- Tested on: A549
- ASSAY TEXT: Antiproliferative activity against human A549 cells assessed as inhibition of cell growth
- Format: functional, cell-based
PROPERTY LABEL: IC50

{"CHEMICAL STRING": "Cc1ncsc1-c1ccc(CNC(=O)[C@@H]2C[C@@H](O)CN2C(=O)[C@@H](NC(=O)CCCCCCCCCCCCCCC(=O)n2nc(N)c3c(-c4cccc(NC(=O)Nc5cccc(Cl)c5)c4)cccc32)C(C)(C)C)cc1", "IC50": "> 100 µM"}
{"CHEMICAL STRING": "Cc1ncsc1-c1ccc(CNC(=O)[C@@H]2C[C@@H](O)CN2C(=O)[C@@H](NC(=O)CCCCCCCCCCC(=O)n2nc(N)c3c(-c4cccc(NC(=O)Nc5cccc(Cl)c5)c4)cccc32)C(C)(C)C)cc1", "IC50": "> 100 µM"}
{"CHEMICAL STRING": "Nc1n[nH]c2cccc(-c3cccc(NC(=O)Nc4cccc(Cl)c4)c3)c12", "IC50": "15.8 µM"}

Now examine the next entry.
Query string: Which IC50 value is on record for `Cc1ncsc1-c1ccc(CNC(=O)[C@@H]2C[C@@H](O)CN2C(=O)[C@@H](NC(=O)CCCCCC(=O)n2nc(N)c3c(-c4cccc(NC(=O)Nc5cccc(Cl)c5)c4)cccc32)C(C)(C)C)cc1` ?
Result string: > 100 µM
